The values you see were collected from the RNAGym collection of RNA variant scans (doi:10.7554/elife.80360).

B1: Hairpin Ribozyme (parent)
chain: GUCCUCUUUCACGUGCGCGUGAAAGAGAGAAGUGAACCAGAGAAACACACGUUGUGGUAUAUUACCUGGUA

- Variants of: B1
- measurement.notes: self-cleavage, relative activity (ratio to wild type); higher = more cleavage; co-transcriptional
observable: self-cleavage
Give bare numbers.

Record excerpt, results attached:
Problem: Identify self-cleavage associated with the variant G27U U52G
Solution: 0.114

Problem: Identify self-cleavage associated with the variant G25A A44G
Solution: 0.158

Problem: Identify self-cleavage associated with the variant U5C A49C
Solution: 0.377

Problem: Identify self-cleavage associated with the variant G57A U63C
Solution: 0.151

Problem: Identify self-cleavage associated with the variant G1A U20C
Solution: 0.188

Provide each entry's self-cleavage from the list below.
1. U14C G54C
2. C46A U62A
3. C16A C46A
4. G34C U58C
5. C50A A64G
6. A44G C48A

Solution:
1: 0.397; 2: 0.132; 3: 0.197; 4: 1.4; 5: 0.211; 6: 0.102

Provide each entry's self-cleavage from the list below.
1. C6U C66G
2. U5C A23U

Solution:
0.194
0.461

Provide each entry's self-cleavage from the list below.
1. C10G G68C
2. C3G G27A
3. U5G U58A
4. C10G U58G
5. A24C G25U
6. G40U U53G

Solution:
0.199
0.266
0.272
0.441
0.388
0.151
